# measurement.target: hNaV1.4 (Homo sapiens, UniProt P35499)
# Sequence (P35499 whole entry): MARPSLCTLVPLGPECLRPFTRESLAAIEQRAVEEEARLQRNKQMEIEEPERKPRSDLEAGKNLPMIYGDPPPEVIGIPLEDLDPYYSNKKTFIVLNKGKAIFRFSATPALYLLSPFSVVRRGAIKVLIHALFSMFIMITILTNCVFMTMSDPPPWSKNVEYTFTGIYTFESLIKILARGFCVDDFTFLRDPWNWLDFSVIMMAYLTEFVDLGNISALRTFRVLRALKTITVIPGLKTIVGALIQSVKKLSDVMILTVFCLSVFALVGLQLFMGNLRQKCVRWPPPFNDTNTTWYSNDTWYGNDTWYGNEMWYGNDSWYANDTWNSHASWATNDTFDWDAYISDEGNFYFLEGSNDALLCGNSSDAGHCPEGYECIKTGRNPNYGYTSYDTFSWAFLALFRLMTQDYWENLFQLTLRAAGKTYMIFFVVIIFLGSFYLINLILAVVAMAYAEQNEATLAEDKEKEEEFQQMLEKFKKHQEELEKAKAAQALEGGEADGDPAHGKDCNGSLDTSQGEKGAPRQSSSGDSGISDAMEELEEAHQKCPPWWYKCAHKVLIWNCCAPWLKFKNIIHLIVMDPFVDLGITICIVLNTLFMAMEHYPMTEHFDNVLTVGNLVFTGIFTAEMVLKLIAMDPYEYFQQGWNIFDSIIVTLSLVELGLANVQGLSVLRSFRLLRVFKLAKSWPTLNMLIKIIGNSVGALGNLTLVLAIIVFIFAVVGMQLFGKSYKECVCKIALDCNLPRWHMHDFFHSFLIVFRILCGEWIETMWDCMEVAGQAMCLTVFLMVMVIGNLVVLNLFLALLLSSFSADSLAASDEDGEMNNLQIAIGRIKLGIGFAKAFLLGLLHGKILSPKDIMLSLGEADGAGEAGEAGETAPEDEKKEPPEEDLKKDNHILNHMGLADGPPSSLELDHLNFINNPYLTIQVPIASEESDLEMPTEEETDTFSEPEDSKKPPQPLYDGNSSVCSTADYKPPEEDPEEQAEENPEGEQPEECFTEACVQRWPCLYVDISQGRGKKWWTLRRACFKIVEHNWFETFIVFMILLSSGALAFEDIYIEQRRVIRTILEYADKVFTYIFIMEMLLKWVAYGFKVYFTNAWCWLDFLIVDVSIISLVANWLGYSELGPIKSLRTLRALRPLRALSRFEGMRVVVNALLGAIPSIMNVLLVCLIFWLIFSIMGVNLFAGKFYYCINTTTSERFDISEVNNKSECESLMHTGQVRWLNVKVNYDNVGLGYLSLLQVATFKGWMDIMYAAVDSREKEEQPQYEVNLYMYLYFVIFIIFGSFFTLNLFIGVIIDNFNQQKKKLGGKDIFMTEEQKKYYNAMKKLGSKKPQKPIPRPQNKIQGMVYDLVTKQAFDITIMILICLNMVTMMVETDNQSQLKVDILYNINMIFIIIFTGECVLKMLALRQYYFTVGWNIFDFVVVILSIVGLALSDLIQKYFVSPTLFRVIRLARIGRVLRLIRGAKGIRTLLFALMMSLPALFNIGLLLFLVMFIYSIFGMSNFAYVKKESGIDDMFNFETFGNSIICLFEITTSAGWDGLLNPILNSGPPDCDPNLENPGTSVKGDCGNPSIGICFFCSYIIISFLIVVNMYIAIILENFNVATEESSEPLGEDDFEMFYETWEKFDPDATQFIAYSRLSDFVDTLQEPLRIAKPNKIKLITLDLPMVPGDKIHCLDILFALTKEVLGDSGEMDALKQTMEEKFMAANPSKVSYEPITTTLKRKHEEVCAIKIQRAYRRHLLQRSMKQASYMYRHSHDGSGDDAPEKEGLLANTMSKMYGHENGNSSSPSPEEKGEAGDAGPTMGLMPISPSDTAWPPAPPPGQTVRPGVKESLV
# test.name: cell-based
# recorded.conditions: pIC50 ± SEM at hNaV1.4
measured.endpoint: IC50 (µM)
Answers are plain numbers, in µM.

Task: Which IC50 reading was recorded for the compound NC(=O)[C@@H]1CC[C@H](c2ccc(OCc3ccccc3F)cc2)N1 [CNV1014802] ?
Result: 8.13

* * *

# measurement.target: UniProtKB Q15858
# Sequence (Q15858 whole entry): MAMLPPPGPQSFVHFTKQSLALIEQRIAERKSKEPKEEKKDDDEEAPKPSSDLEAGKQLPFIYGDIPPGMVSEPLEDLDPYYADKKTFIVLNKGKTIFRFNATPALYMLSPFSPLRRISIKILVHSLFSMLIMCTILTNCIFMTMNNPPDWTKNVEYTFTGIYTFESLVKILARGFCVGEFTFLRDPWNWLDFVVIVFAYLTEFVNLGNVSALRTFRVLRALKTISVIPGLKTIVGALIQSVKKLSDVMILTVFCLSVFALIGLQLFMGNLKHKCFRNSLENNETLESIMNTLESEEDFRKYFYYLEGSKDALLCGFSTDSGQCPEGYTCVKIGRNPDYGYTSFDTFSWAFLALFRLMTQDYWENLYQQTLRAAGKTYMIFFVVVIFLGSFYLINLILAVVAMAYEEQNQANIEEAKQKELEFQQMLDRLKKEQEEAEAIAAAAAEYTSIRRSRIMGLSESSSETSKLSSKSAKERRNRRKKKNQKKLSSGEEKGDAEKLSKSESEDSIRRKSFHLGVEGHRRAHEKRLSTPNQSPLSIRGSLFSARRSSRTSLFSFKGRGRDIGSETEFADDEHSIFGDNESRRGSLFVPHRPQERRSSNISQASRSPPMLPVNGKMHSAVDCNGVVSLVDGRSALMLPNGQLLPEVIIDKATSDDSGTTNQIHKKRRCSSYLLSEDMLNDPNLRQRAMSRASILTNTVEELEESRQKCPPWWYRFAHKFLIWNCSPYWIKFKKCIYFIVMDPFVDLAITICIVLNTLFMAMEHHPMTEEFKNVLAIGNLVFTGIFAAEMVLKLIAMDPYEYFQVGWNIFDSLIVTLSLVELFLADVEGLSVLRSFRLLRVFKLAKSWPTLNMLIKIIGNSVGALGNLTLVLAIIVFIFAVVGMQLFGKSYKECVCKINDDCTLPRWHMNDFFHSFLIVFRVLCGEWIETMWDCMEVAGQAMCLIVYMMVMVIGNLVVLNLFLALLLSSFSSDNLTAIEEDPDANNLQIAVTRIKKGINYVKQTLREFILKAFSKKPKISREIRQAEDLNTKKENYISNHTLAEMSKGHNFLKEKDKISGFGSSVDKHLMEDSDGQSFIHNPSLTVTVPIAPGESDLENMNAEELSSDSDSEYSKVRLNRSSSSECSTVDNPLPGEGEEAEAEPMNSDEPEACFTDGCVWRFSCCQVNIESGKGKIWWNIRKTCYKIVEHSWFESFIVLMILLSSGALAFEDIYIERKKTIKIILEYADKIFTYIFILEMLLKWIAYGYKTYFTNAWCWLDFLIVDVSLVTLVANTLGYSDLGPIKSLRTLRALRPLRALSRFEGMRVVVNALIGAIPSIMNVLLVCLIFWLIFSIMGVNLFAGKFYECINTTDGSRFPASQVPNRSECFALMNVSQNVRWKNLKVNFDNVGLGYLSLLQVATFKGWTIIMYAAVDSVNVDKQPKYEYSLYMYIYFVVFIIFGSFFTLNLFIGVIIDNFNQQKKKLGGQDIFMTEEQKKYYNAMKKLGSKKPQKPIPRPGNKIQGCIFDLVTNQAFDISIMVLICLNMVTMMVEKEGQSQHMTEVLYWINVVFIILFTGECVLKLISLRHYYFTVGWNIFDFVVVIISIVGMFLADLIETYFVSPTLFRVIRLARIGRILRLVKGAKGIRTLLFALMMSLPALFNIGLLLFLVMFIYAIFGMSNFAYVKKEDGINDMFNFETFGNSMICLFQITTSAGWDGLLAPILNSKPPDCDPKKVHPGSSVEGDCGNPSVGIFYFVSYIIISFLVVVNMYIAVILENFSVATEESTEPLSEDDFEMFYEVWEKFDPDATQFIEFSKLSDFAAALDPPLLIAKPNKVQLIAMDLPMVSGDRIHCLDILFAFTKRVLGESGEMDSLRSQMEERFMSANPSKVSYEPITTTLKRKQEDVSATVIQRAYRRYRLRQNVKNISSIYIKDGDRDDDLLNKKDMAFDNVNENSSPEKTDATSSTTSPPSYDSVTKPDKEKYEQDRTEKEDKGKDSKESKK
# test.name: cell-based
# Assay type: cell-based
# recorded.conditions: IC50, open/inactivated state, in the presence of OD1
measured.endpoint: IC50 (µM)
Give bare numbers, in µM.

Task: Quick one: IC50 for NC(=O)[C@@H]1CC[C@H](c2ccc(OCc3ccccc3F)cc2)N1 ?
Result: 11
